- Tested on: PIP5K1A
- condition-set: concentration: 1 μM, replicates: in singlicate; n = 1;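 note: KINOMEscan kinase panel screen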
observable: %Inh (%)
Give bare numbers, in %.

# compound, %Inh (%)
measured = [
    ("Fc1ccc(-c2ncn(CCCN3CCOCC3)c2-c2ccccn2)cc1 [SB-211742]", 22),
    ("O=C(Nc1n[nH]c2cc(-c3cccc(F)c3)ccc12)C1CC1 [SB-735464]", 37),
    ("C[C@@H](Oc1cc(-n2cnc3ccc(NC(=O)NC(C)(C)C)cc32)sc1C(N)=O)c1ccccc1Cl [GSK346294]", 35),
    ("NS(=O)(=O)CCc1cccc(Nc2nccc(-c3c(-c4cccc(NC(=O)c5c(F)cccc5F)c4)nn4ccccc34)n2)c1 [GSK336735]", 0),
    ("COCCNC(=O)c1ccc(-c2cc(C(=O)NC3CC3)cc(F)c2C)cc1 [GW868318]", 1),
]

Look up %Inh for the entries below, preserving their order.
1. O=C(NCCCN1CCOCC1)c1cccc(Nc2nccc(Nc3ccc(Oc4ccccc4)cc3)n2)c1 [GW663929]
2. Cc1c(Cn2c(C)nn3c(=O)cc(N4CCOC(C)C4)nc23)cccc1C(F)(F)F (centres unmarked) [GSK2344444]
3. NCC(NC(=O)c1cc(-c2cn[nH]c2)c(-c2ccnc3[nH]ccc23)s1)c1ccccc1.O=C(O)C(F)(F)F.O=C(O)C(F)(F)F (centres unmarked) [GSK1325775]

Reply text:
1: 18; 2: 0; 3: 50

---

- Tested on: MAP4K5
- condition-set: concentration: 1 μM, replicates: in singlicate; n = 1
observable: %Inh (%)
Give bare numbers, in %.

Answered examples (8):
# chem-smiles, %Inh / %
measured = [
    ("O=c1cc(N2CCOCC2)nc2n(Cc3cccc4ccccc34)ccn12", 10),
    ("CN(C(=O)c1ccc(-c2cc(-c3c[nH]nc3-c3ccccn3)ccn2)cc1)C1CCOCC1", 0),
    ("C[C@@H](Oc1cc(-n2cnc3ccc(NC(=O)NC(C)(C)C)cc32)sc1C(N)=O)c1ccccc1Cl", 0),
    ("N#Cc1ccc(-c2cc(-c3c[nH]nc3-c3ccccn3)ccn2)cc1", 0),
    ("Cc1cccc(Cn2ccn3c(=O)cc(N4CCOCC4)nc23)c1", 0),
    ("[2H]C([2H])(c1cccc(C(F)(F)F)c1C)n1ccn2c(=O)nc(N3CCOCC3)cc12", 0),
    ("Cc1cccc(-c2nc(Nc3ccc4ncsc4c3)c3ccccc3n2)n1", 4),
    ("CCCCCc1nc2c(N)ncnc2n1CCCCC", 0),
]

Look up %Inh for the entries below, preserving their order.
1. O=c1cc(N2CCOCC2)nc2n(Cc3cccc(F)c3)ccn12
2. Fc1ccc(-c2nn3c(OCC(F)(F)F)cccc3c2-c2ccncc2)cc1

Reply text:
[4, 0]

---

- Test system: WNK3
- condition-set: concentration: 1 μM, replicates: in singlicate; n = 1
Hi! Just check whether %Inh is below 20%. Below gives criterion met, equal or above gives criterion not met.

# count of solved cases: 3
# molecule, group-label
measured = [
    ("Fc1ccc(-c2nn3c(OCC(F)(F)F)cccc3c2-c2ccncc2)cc1", "criterion not met"),
    ("O=c1cc(N2CCOCC2)nc2n(Cc3cccc(Cl)c3Cl)c(C3CC3)nn12", "criterion met"),
    ("O=C(Nc1n[nH]c2cc(-c3cccc(F)c3)ccc12)C1CC1", "criterion not met"),
]

Here is another molecule to look at.
Inquiry: %Inh under 20%? Item: CCc1nc(-c2cccc(C)c2)c(-c2ccnc(NCc3ccccc3)c2)s1
Reply text: criterion met
